# test_target: Epidermal growth factor receptor (Homo sapiens, UniProt P00533, C797S/L858R)
# Sequence (P00533 25-1210 C797S/L858R limits assumed): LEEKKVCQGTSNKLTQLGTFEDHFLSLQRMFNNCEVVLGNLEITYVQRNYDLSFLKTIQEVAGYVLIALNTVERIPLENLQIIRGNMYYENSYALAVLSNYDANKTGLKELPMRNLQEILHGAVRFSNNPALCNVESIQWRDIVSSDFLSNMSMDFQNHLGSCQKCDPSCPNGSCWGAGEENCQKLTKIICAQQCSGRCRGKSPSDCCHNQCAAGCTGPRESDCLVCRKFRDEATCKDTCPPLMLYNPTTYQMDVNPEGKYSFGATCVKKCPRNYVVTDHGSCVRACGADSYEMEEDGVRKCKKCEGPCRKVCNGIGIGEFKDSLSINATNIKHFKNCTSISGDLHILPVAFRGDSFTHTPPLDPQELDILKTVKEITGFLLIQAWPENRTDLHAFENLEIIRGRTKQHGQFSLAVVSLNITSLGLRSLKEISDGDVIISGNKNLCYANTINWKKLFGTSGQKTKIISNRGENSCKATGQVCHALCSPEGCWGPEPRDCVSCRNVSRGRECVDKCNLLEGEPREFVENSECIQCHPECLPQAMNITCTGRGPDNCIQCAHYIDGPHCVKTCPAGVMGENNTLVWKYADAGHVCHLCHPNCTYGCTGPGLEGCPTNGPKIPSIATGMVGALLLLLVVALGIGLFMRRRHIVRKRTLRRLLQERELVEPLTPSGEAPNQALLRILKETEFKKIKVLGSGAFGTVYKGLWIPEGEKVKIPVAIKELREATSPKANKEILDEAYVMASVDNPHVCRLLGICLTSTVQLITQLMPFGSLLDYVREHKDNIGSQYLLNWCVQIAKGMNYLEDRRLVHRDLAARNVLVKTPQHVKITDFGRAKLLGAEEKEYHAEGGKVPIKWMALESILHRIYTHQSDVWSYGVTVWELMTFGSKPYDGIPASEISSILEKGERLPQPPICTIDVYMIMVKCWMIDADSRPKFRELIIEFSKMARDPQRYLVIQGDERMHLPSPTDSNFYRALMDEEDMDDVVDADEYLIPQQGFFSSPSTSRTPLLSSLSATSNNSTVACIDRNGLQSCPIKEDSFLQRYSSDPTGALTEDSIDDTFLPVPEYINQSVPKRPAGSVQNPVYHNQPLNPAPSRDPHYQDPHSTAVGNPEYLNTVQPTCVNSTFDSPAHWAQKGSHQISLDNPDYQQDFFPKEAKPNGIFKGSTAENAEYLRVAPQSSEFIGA
# experiment_notes: Inhibition of EGFR L858R/C797S mutant (unknown origin) using TK-substrate preincubated with enzyme for 30 mins followed by substrate and ATP addition for 20 mins by HTRF assay
Note that class boundaries on IC50 are bin A = under 0.4 nM, bin B = from 0.4 nM up to 20 nM, bin C = 20 nM and over

smiles_text	category_label
COc1cc(N2CCC(N)CC2)ccc1Nc1ncc(C(=O)OC(C)C)c(-c2cn(C)c3ccccc23)n1	bin B
C=CC(=O)Nc1cc(Nc2ncc(C(=O)OC(C)C)c(-c3cn(C)c4ccccc34)n2)c(OC)cc1N(C)CCN(C)C	bin C
CCOC(=O)c1cnc(Nc2ccc(N3CCN(C)CC3)cc2OC)nc1-c1cn(C)c2ccccc12	bin B
COc1cc(N2CCC(N(C)C)CC2)ccc1Nc1ncc(C(=O)OC(C)C)c(-c2c[nH]c3ccccc23)n1	bin A
COc1cc(N2CCN(C)CC2)ccc1Nc1nccc(-c2cn(C)c3ccccc23)n1	bin C
COc1cc(N2CCC(N(C)C)CC2)ccc1Nc1ncc(C(=O)OC(C)C)c(-c2cn(C)c3ccccc23)n1	bin B
COc1cc(N2CCC(N(C)C)CC2)ccc1Nc1ncc(C(=O)Oc2ccccc2)c(-c2c[nH]c3ccccc23)n1	bin A
COc1cc(N2CCN(C)CC2)ccc1Nc1ncc(C(=O)Oc2ccccc2)c(-c2cn(C)c3ccccc23)n1	bin A
COC(=O)c1cnc(Nc2ccc(N3CCN(C)CC3)cc2OC)nc1-c1cn(C)c2ccccc12	bin C
COc1cc(N2CCC(N(C)C)CC2)ccc1Nc1ncc(C(=O)OC(C)C)c(-c2cn(C(C)=O)c3ccccc23)n1	bin B

* * *

# experiment_notes: Intrinsic clearance in mouse liver microsomes at 1 uM in presence of NADP measured per mg protein by LC-MS/MS analysis
# Format: ADME, Microsome
# experimental_conditions: read-out: CLH
test_readout: microsomal CLint at 1 µM (µL/min/mg)

compound	u	readout_number
COc1cc(N2CCC(N(C)C)CC2)ccc1Nc1ncc(C(=O)OC(C)C)c(-c2c[nH]c3ccccc23)n1	µL/min/mg	49
COc1cc(N2CCC(N(C)C)CC2)ccc1Nc1ncc(C(=O)Oc2ccccc2)c(-c2c[nH]c3ccccc23)n1	µL/min/mg	55
C=CC(=O)Nc1cc(Nc2ncc(C(=O)OC(C)C)c(-c3cn(C)c4ccccc34)n2)c(OC)cc1N(C)CCN(C)C [MOBOCERTINIB]	µL/min/mg	149
C=CC(=O)Nc1cc(Nc2nccc(-c3cn(C)c4ccccc34)n2)c(OC)cc1N(C)CCN(C)C [OSIMERTINIB]	µL/min/mg	81

* * *

The following molecules are listed with their measured EC50 values.
# Tested on: BaF3
# experiment_notes: Cytotoxicity against mouse BaF3 cells expressing EGFR L858R mutant assessed as reduction in cell viability incubated for 96 hrs by CellTiter-Glo assay
# Assay type: functional, cell-based
# experimental_conditions: BaF3, 96 h

smiles_text	u	EC50
CCOC(=O)c1cnc(Nc2ccc(N3CCN(C)CC3)cc2OC)nc1-c1cn(C)c2ccccc12	nM	1900
COc1cc(N2CCN(C)CC2)ccc1Nc1nccc(-c2cn(C)c3ccccc23)n1	nM	3630
COC(=O)c1cnc(Nc2ccc(N3CCN(C)CC3)cc2OC)nc1-c1cn(C)c2ccccc12	nM	3340
COc1cc(N2CCN(C)CC2)ccc1Nc1ncc(C(=O)OC(C)C)c(-c2cn(C)c3ccccc23)n1	nM	605
C=CC(=O)Nc1cc(Nc2ncc(C(=O)OC(C)C)c(-c3cn(C)c4ccccc34)n2)c(OC)cc1N(C)CCN(C)C	nM	1.1
C=CC(=O)Nc1cc(Nc2nccc(-c3cn(C)c4ccccc34)n2)c(OC)cc1N(C)CCN(C)C	nM	6
